# SYSTEM TESTED: SARS-CoV-1 Spike (SARS-CoV-1, UniProt P59594 14-1195)
# MEASUREMENT PROTOCOL: ELISA
ENDPOINT LABEL: pIC50
When answering, recall that pIC50 equals minus log10 of the concentration in mol/L, and write that number alone.

Requested read-out: pIC50. Entry: 1-B11-A (antibody, V domains shown) VH: QVQLQQSGPELVKPGASVKISCKASGYTFTDHYINWVKQRPGQGLEWIGWIFPGSGSTYYNEQFKGKATLTVDKSSNTAYMLLSSLTSEDSAVYFCARSGGLRLGFAYWGQGTLVTVSA VL: DIQMTQTTSSLSASLGDRVTISCRASQDISNYLNWYQQKPDGTVKLLIYYTSRLHSGVPSRFSGSGSGTDYSLTISNLEQEDISTYFCQQVNTLPYTFGGGTKLEIK
7.68

Same again, this time with 2-P2-A (antibody, V domains shown) VH: EVQLQQSGAELVRPGSSVKMSCKTSGYTFTSYGINWVKQRPGQGLEWIGYIYIGNGYTEYNEKFKGKATLTSDTSSSTAYMQLSSLTSEDSAIYFCARGGVDYWGQGTTLTVSS VL: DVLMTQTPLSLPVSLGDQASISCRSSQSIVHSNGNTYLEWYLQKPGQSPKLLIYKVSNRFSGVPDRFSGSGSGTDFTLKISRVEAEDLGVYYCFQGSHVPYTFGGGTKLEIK
7.75

Same again, this time with 1-L10-A (antibody, V domains shown) VH: EVKLEESGGGLVQPGGSMKLSCVASGFTFNNYWMNWVRQSPEKGLEWVAQMRLKSDNYATHYAESVKGRFTISRDDSKSSVYLQMNNLRAEDTGIYYCIEGYWTYWGQGTLVTVSA VL: QIVLTQSPAIMSASLGERVTMTCTASSSVSSSYLHWYQQKPGSSPKLWIYSTSNLASGVPARFSGNGSGTSYSLTISSMEAEDAATYYCLQYHRSPPYTFGGGTKLEIK
8.12

Data credit: patent US20220372114A1
